# Target: Opioid receptor (Rattus norvegicus, UniProt P33533+P34975+P33535)
# Test method notes: The compound was tested for binding affinity against opioid receptor in rat brain membranes, using [3H]dihydromorphine as the radioligand
# Format: cell membranes
Binary label based on IC50 with cut-off 0.3 nM: below gives Satisfied, not below gives Not satisfied.

CCCOC(=O)/C=C/C(=O)N[C@@H]1CC[C@@]2(O)C3Cc4ccc(O)c5c4C2(CCN3CC2CC2)[C@H]1O5 (stereo partly specified) :: Not satisfied
CCOC(=O)/C=C/C(=O)N[C@@H]1CC[C@@]2(O)C3Cc4ccc(O)c5c4C2(CCN3CC2CC2)[C@H]1O5 (stereo partly specified) :: Not satisfied
COC(=O)/C=C/C(=O)N[C@@H]1CC[C@@]2(O)[C@H]3Cc4ccc(O)c5c4[C@@]2(CCN3CC2CC2)[C@H]1O5 :: Not satisfied
O=C(/C=C/C(=O)OCCc1ccccc1)N[C@@H]1CC[C@@]2(O)C3Cc4ccc(O)c5c4C2(CCN3CC2CC2)[C@H]1O5 (stereo partly specified) :: Satisfied
CCCCOC(=O)/C=C/C(=O)N[C@@H]1CC[C@@]2(O)C3Cc4ccc(O)c5c4C2(CCN3CC2CC2)[C@H]1O5 (stereo partly specified) :: Not satisfied

----------
# Target: Opioid receptor (Mus musculus, UniProt P42866+P32300+P33534)
# Test method notes: Compound was tested for agonist activity against opioid receptor in mouse vas deferens preparation
# Type: functional
Known log10(IC50) of a selection of compounds
Experimental readout: log10(IC50) (log10 of the value in nM)

CCCOC(=O)/C=C/C(=O)N[C@@H]1CC[C@@]2(O)C3Cc4ccc(O)c5c4C2(CCN3CC2CC2)[C@H]1O5 (stereo not given in full) :: 1.32
COC(=O)/C=C/C(=O)N[C@@H]1CC[C@@]2(O)[C@H]3Cc4ccc(O)c5c4[C@@]2(CCN3CC2CC2)[C@H]1O5 :: 1.91
CCCCOC(=O)/C=C/C(=O)N[C@@H]1CC[C@@]2(O)C3Cc4ccc(O)c5c4C2(CCN3CC2CC2)[C@H]1O5 (stereo not given in full) :: 0.85
O=C(/C=C/C(=O)OCCc1ccccc1)N[C@@H]1CC[C@@]2(O)C3Cc4ccc(O)c5c4C2(CCN3CC2CC2)[C@H]1O5 (stereo not given in full) :: 1.85
CCOC(=O)/C=C/C(=O)N[C@@H]1CC[C@@]2(O)C3Cc4ccc(O)c5c4C2(CCN3CC2CC2)[C@H]1O5 (stereo not given in full) :: 1.11

----------
Known Potency ratio of a selection of compounds
# Tested on: Opioid receptors; mu/kappa/delta
# Test method notes: Compound was tested for agonist potency against opioid receptor in guinea pig ileal longitudinal muscle expressed as IC50 of morphine divided by the compound
# Format: functional
Experimental readout: Potency ratio

CCCCOC(=O)/C=C/C(=O)N[C@@H]1CC[C@@]2(O)C3Cc4ccc(O)c5c4C2(CCN3CC2CC2)[C@H]1O5 (stereo partly specified) :: 66.1
O=C(/C=C/C(=O)OCc1ccccc1)N[C@@H]1CC[C@@]2(O)C3Cc4ccc(O)c5c4C2(CCN3CC2CC2)[C@H]1O5 (stereo partly specified) :: 1.41
CCOC(=O)/C=C/C(=O)N[C@@H]1CC[C@@]2(O)C3Cc4ccc(O)c5c4C2(CCN3CC2CC2)[C@H]1O5 (stereo partly specified) :: 16.1
CCCOC(=O)/C=C/C(=O)N[C@@H]1CC[C@@]2(O)C3Cc4ccc(O)c5c4C2(CCN3CC2CC2)[C@H]1O5 (stereo partly specified) :: 147
O=C(/C=C/C(=O)OCCc1ccccc1)N[C@@H]1CC[C@@]2(O)C3Cc4ccc(O)c5c4C2(CCN3CC2CC2)[C@H]1O5 (stereo partly specified) :: 10.4
COC(=O)/C=C/C(=O)N[C@@H]1CC[C@@]2(O)[C@H]3Cc4ccc(O)c5c4[C@@]2(CCN3CC2CC2)[C@H]1O5 :: 5
